Listing of recorded TGI by entry.
System: EKVX NSCLC
test-method-notes: NCI tumour cell line growth inhibition, 48 h
The reply should be a number in µM, with the unit left off.

The examples below pair each entry with its known result.
Entry COc1ccc2nc3ccc(OC)cc3c(S(=O)CCCl)c2c1 (stereo not given) ; TGI = 25.6

For record C=C1CC(c2ccc(OCCCN3C(=O)c4ccccc4C3=O)c(OC)c2)OC1=O (stereo not given) the listed TGI is 30.6

The value of TGI measured for the compound N#CSC#Cc1ccc(C#CSC#N)cc1 turned out to be 37.2

With those in mind, consider the next compound.
TGI reported for this compound Cc1nc2ccccc2c(=O)n1NC(=O)c1ccc(CS)cc1 : 66.2

* * *

Test system: OVCAR-8 ovarian
test-method-notes: NCI tumour cell line growth inhibition, 48 h
# TGI per entry

Reported TGI ( COCCOc1cc(F)c2c(Nc3ccc(NC(=O)Cn4cc(C(C)C)nn4)cc3)ncnc2c1 ) = > 100 µM

Next:
Looking up O=C1NC(=Nc2ccccc2)S/C1=C\c1ccc2ncccc2c1 , I found its TGI recorded as > 25 µM

Recorded result, O=C1OC(c2ccccc2)=N/C1=C/C=C/c1ccco1 , TGI: > 100 µM

* * *

Below, each entry is listed alongside its reported TGI.
Tested on: SNB-75 CNS
test-method-notes: NCI tumour cell line growth inhibition, 48 h

Answered examples (2):
Record S=C(N/N=C/c1ccco1)NC12CC3CC(CC(C3)C1)C2 . Reported TGI: > 100 µM

# TGI (compound: CC1CC=CC(O)C1 (stereo not drawn) ) is > 100 µM

Continuing:
Documented TGI of CCn1c(-c2cc(OC)cc(OC)c2)nc2c1C(=O)c1ccccc1C2=O : > 100 µM

* * *

Test system: MDA-MB-435
test-method-notes: NCI tumour cell line growth inhibition, 48 h
Recorded TGI, one value per entry.

Noted for CNc1ccc(OC)cc1S(=O)(=O)c1ccccc1[N+](=O)[O-] : its TGI reads > 100 µM

Sure, the documented TGI for COC(C)(C)C1=CCC(C)CC1 (stereo unspecified) is > 100 µM

compound S=C(c1c[nH]c2ccccc12)N1CCOCC1 , TGI observed: > 100 µM

Per the record, CS(=O)(=O)Nc1ccc(N2Cc3cnc4ccc5[nH]ccc2c5c34)cc1 has TGI of 31.5 µM

Entry Cc1ccc(/C=N/n2c(=O)[nH]c3ccccc3c2=O)cc1 — recorded TGI = > 100 µM

Measured TGI, O=C(O)c1n[nH]nc1Cl : > 100 µM

* * *

System: DLD-1 colon
test-method-notes: NCI tumour cell line growth inhibition, 48 h
Each record here notes measured TGI.

// CC(C)(C)OC(=O)NCC(=O)OCc1ccccc1 : TGI value = > 100 µM

Entry COC(=O)C1=C(C)N(NC(=O)c2ccccc2)C(C)(O)C12CCOC2=O (configuration not stated) — recorded TGI = > 100 µM

// field: TGI; key: COC(=O)c1cc2c3ccccc3n(C(C)=O)c2cn1 ; value = > 100 µM

// field: TGI; key: CS(=O)(=O)N/N=C/CN1C(=O)c2ccccc2C1=O ; value = > 100 µM

***
The compound listed as CC(C)(C)[SiH]12(OC(C(F)(F)F)(C(F)(F)F)c3ccccc31)OC(C(F)(F)F)(C(F)(F)F)c1ccccc12 has a reported TGI of 13.3 µM

Lab note: COC(=O)C(C(=O)C(=O)Nc1cccc(OC)c1)c1cnc2ccccc2n1 (configuration not stated) gave TGI of > 100 µM

Query O=c1nc2occc2cn1C1CC(O)C(CO)O1 (configuration not stated) yields TGI of > 100 µM

Measured TGI, COC(=O)C1=C(c2ccc3c(c2)OCO3)O[C@H](c2cc(OC)c(OC)c(OC)c2)[C@H]1COC(C)=O : > 100 µM

Notebook: CCCCOC(=O)C1C(c2ccc(Cl)cc2)NC(c2ccc(Cl)cc2)C(C(=O)OCCCC)S1(=O)=O (configuration not stated) , TGI read as > 100 µM

The measured TGI associated with S=C(N/N=C/c1ccco1)NC12CC3CC(CC(C3)C1)C2 reads > 100 µM

Item: CCN(CC)CCOc1ccc(/C=C(\C#N)c2ccc(OCCN(CC)CC)cc2)cc1 | TGI: > 83.3 µM

Given item Cc1ccc(SC(C)/C=C/NNC2=NC(c3ccccc3)C(c3ccccc3)=NN2)cc1 (configuration not stated) , the value recorded as its TGI is > 100 µM

* * *

Test system: SW-620 colon
test-method-notes: NCI tumour cell line growth inhibition, 48 h
Measured TGI by item
Return type: number; implicit unit µM.

The measured TGI associated with C=C(C=O)C1CCC2(C(=O)O)CCC3(C)C(CCC4C5(C)CCC(O)C(C)(C)C5CCC43C)C12 (stereo not given) reads 5.07

Record Clc1ccc2c(NCCCNc3nccc(Nc4ccc(Br)cc4)n3)ccnc2c1 , field TGI: 3.3

Field TGI (entry C#Cc1cccc(Nc2ncnc3cc(OC)c(OCCCCCCC(=O)NO)cc23)c1 ) reads 0.319

# TGI of CC(C)(C)[SiH]12(OC(C(F)(F)F)(C(F)(F)F)c3ccccc31)OC(C(F)(F)F)(C(F)(F)F)c1ccccc12 = 18.1

* * *

Below is a list of entries, each paired with its recorded TGI value.
Test system: SW-620 colon
test-method-notes: NCI tumour cell line growth inhibition, 48 h
Respond numerically; units are µM and should not be typed.

The reported TGI of the compound COC(=O)/C=C/c1cc(O)c2oc(-c3ccc(O)c(O)c3)c(C(=O)OC)c2c1 was 14

TGI measured on CCN(CC)CCOc1ccc(/C=C(\C#N)c2ccc(OCCN(CC)CC)cc2)cc1 = 29.6

Entry Cc1cc(Br)cc(C)c1NC(=O)C(=O)C(C(=O)c1ccc2ccccc2c1)C1OC(=O)c2ccccc21 (centres undefined) — recorded TGI = 28.1

In the following, a different compound is considered.
Lab note: measured TGI of CC/C(=C(/c1ccc(OCCN(C)C)cc1)c1ccc(OC(=O)CCCCC(=O)c2c(C)[nH]c(/C=C3\N=C(c4ccc[nH]4)C=C3OC)c2C)cc1)c1ccccc1 was 11.4

* * *

# reported TGI; entries follow
Test system: SK-MEL-2 melanoma
test-method-notes: NCI tumour cell line growth inhibition, 48 h

TGI measured on Cc1nnc(S(=O)(=O)c2ccc(N=Nc3c(N)nc(N)nc3N)cc2)s1 = > 100 µM

Per the records, this compound ( NNC(N)Nc1ccccc1 (centres undefined) ) has TGI equal to > 100 µM

---
// recorded TGI for CCc1nc(N)nc(N)c1-c1ccc(Cl)c(Cl)c1 : > 100 µM

Data point: O=C1CCCC/C(=C/c2ccccc2)N1 ; TGI = > 100 µM

* * *

The entries below are paired with their reported TGI.
Tested on: SF-295 CNS
test-method-notes: NCI tumour cell line growth inhibition, 48 h

Example results:
TGI reported for this compound O=[N+]([O-])c1ccc(Cl)c(C=NC23CC4CC(CC(C4)C2)C3)c1 : > 10 µM

For record COCCOCc1nc(C#N)c(N)o1 the listed TGI is > 100 µM

The reported TGI of the compound COc1ccc2nc3ccc(OC)cc3c(S(=O)CCCl)c2c1 (centres undefined) was 45.2 µM

Next:
The compound CC1CC(N)=Nc2ccccc2N1 (centres undefined) showed TGI equal to > 100 µM

The recorded TGI for entry CCOC(=O)C1=CC(C)(C(=O)OCC)Nc2c(nc(OC)n(C)c2=O)N1 (centres undefined) equals > 10 µM

Per the record, C=C(C)[C@@]12OC3(/C=C/C=C/CCCCC)O[C@@H]1[C@@H]1[C@@H]4O[C@]4(CO)[C@@H](O)[C@]4(O)C(=O)C(C)=C[C@H]4[C@@]1(O3)[C@H](C)[C@H]2OC(=O)c1ccccc1 has TGI of 4.9 µM

* * *

Tested on: SK-OV-3 ovarian
test-method-notes: NCI tumour cell line growth inhibition, 48 h
Listing of entries alongside the reported TGI.

Example results:
Sample OCCN1CN(CCO)CN(c2nc(N3CN(CCO)CN(CCO)C3)nc(N3CN(CCO)CN(CCO)C3)n2)C1 , system: SK-OV-3 ovarian. Its TGI is 4.64 ng/mL

Kindly note: SK-OV-3 ovarian, CC(C)(C)c1cc(C(P(=O)(c2ccccc2)c2ccccc2)P(=O)(c2ccccc2)c2ccccc2)cc(C(C)(C)C)c1O , TGI value reported: > 10 µM

---
// returns TGI for O=C(CCCn1ccnc1[N+](=O)[O-])NCCn1cncc1[N+](=O)[O-] with SK-OV-3 ovarian; value = > 100 µM

* * *

// reported TGI per item
Tested on: HCT-116 colon
test-method-notes: NCI tumour cell line growth inhibition, 48 h

Here's what some known entries look like.
Per the record, Cc1nnc(S(=O)(=O)c2ccc(N=Nc3c(N)nc(N)nc3N)cc2)s1 has TGI of > 100 µM

// recorded TGI for Cn1cc(C2=C(c3ccc4ccccc4c3)C(=O)NC2=O)c2ccccc21 : > 25 µM

Below: the item to evaluate.
Just so you know, measured TGI for COC(C)(C)C1=CCC(C)CC1 (stereo not drawn) came out at > 100 µM
